// Metabotropic glutamate receptor 5 (Homo sapiens, UniProt P41594) Ki records
Express it in µM; write the number only.

Example entries and their recorded answers appear below.
IN: Any idea what Ki came out for `N[C@H](C(=O)O)[C@H]1C[C@@H]1S(=O)(=O)O` on Metabotropic glutamate receptor 5 (Homo sapiens, UniProt P41594)?
OUT: 49

IN: # query: Ki | item `N[C@@H](C(=O)O)[C@@H]1C[C@H]1S(=O)(=O)O` | system: Metabotropic glutamate receptor 5 (Homo sapiens, UniProt P41594)
OUT: 67

IN: Return Ki measured with Metabotropic glutamate receptor 5 (Homo sapiens, UniProt P41594) given this molecule: `N[C@H](C(=O)O)[C@@H]1C[C@H]1S(=O)(=O)O`
Sequence (P41594 whole entry): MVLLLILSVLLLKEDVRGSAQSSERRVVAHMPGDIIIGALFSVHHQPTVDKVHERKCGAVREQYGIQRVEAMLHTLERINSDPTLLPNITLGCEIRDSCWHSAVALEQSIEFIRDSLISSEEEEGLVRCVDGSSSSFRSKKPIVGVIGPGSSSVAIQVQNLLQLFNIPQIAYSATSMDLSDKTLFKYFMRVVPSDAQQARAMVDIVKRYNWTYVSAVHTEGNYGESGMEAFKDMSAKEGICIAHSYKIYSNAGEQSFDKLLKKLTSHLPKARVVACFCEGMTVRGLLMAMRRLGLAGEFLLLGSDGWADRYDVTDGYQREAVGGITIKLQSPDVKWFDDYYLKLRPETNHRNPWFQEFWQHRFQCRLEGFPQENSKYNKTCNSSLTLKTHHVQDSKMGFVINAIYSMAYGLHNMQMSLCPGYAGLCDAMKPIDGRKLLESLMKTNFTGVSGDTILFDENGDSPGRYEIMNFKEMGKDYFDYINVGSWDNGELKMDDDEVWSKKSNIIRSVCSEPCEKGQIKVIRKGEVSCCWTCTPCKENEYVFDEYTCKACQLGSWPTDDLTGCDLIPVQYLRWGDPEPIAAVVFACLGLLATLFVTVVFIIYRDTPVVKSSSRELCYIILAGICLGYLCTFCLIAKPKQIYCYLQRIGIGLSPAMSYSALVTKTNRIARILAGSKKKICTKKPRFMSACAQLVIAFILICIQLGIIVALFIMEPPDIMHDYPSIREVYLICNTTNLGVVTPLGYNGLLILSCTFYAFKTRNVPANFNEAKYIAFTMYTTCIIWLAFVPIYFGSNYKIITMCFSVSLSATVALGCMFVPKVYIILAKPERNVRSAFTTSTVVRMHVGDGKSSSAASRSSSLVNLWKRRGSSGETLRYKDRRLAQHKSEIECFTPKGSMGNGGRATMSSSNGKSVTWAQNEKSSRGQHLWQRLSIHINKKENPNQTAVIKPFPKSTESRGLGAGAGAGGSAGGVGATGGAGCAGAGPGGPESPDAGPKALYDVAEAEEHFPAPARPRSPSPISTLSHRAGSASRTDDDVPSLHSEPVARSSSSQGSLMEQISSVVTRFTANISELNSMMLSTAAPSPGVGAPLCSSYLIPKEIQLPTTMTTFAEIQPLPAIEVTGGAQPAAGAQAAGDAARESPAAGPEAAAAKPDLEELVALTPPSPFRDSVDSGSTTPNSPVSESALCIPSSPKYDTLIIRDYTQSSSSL
OUT: 81

IN: So what Ki did `N[C@@H](C(=O)O)[C@H]1C[C@H]1S(=O)(=O)O` get with Metabotropic glutamate receptor 5 (Homo sapiens, UniProt P41594)?
OUT: 55

--- query ---
IN: Look up Ki with Metabotropic glutamate receptor 5 (Homo sapiens, UniProt P41594) for this molecule: `N[C@@H](CCS(=O)(=O)O)C(=O)O`
OUT: 54

###

target: Glutamate NMDA receptor; assay: Displacement of [3H]CGP-39653 from rat NMDA receptor in rat brain membranes
This section presents compounds with their documented Ki values.

IN: Look up Ki: `N[C@H](C(=O)O)[C@@H]1C[C@@H]1S(=O)(=O)O`
OUT: 19 µM

IN: Look at this compound and give its reported Ki. `N[C@@H](CCS(=O)(=O)O)C(=O)O`
OUT: 2.7 µM

IN: Entry `N[C@@H](C(=O)O)[C@@H]1C[C@@H]1S(=O)(=O)O` : reported Ki = ?
OUT: > 300 µM

IN: Consider the compound `N[C@H](C(=O)O)[C@@H]1C[C@H]1S(=O)(=O)O` and give its measured Ki.
OUT: > 300 µM

IN: Quick one: Ki for `N[C@@H](C(=O)O)[C@H]1C[C@@H]1S(=O)(=O)O` ?
OUT: 22 µM

IN: // query Ki value for entry `N[C@H](C(=O)O)[C@H]1C[C@@H]1S(=O)(=O)O`
OUT: > 300 µM

IN: Reported Ki for `N[C@H](C(=O)O)[C@H]1C[C@H]1S(=O)(=O)O` : what is it?
OUT: > 300 µM

IN: Field request: Ki | item: `N[C@@H](C(=O)O)[C@H]1C[C@H]1S(=O)(=O)O`
OUT: 61 µM

IN: What does the data say about its Ki? Entry: `N[C@@H](C(=O)O)[C@@H]1C[C@H]1S(=O)(=O)O`
OUT: 150 µM

IN: Please report the recorded Ki for `N[C@H](C(=O)O)[C@@H]1C[C@@H]1C(=O)O` .
OUT: 0.009 µM

###

Below are Ki values measured for Metabotropic glutamate receptor 2 (Homo sapiens).

IN: GET /values?readout=Ki&item= `N[C@@H](C(=O)O)[C@H]1C[C@H]1S(=O)(=O)O`
OUT: > 300 µM

IN: Item `N[C@H](C(=O)O)[C@@H]1C[C@@H]1S(=O)(=O)O` has what recorded Ki?
OUT: > 300 µM

// switching to the query molecule
IN: What does the record list as Ki for `N[C@@H](C(=O)O)[C@@H]1C[C@@H]1S(=O)(=O)O` ?
OUT: > 300 µM

###

molecular target: Metabotropic glutamate receptor 1 (Homo sapiens, UniProt Q13255)
Sequence (Q13255 whole entry): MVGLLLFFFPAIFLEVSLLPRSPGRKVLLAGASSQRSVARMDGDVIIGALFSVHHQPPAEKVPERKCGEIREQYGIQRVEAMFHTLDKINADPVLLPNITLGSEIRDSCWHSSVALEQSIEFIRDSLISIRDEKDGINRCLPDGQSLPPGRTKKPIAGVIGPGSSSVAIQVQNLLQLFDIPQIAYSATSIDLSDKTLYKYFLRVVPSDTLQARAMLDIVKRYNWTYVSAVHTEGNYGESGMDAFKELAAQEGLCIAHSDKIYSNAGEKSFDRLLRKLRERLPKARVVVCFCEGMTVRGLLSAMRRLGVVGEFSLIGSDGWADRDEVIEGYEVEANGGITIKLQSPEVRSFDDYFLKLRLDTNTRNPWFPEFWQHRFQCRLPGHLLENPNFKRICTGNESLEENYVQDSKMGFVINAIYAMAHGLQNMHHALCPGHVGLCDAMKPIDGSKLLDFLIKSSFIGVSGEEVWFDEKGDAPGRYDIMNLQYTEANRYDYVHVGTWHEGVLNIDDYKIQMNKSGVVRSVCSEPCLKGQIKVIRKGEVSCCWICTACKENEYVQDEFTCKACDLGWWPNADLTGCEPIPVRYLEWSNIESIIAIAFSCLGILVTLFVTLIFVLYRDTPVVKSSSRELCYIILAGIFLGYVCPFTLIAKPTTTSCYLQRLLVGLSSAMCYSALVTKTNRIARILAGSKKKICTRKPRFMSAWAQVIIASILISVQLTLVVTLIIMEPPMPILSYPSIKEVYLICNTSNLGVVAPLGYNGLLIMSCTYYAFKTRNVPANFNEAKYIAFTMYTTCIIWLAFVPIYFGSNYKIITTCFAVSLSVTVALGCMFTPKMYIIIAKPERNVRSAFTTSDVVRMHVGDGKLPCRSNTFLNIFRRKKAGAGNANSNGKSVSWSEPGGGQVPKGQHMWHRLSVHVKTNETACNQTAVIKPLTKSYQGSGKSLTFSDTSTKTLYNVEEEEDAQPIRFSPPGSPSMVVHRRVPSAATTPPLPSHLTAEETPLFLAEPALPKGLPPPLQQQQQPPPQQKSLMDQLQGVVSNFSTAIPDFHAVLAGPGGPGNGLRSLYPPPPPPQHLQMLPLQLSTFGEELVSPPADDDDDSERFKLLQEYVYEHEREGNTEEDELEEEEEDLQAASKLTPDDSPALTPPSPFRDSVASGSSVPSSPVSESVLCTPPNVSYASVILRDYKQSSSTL
Quick reference: Ki of the listed items.
Only the number, expressed in µM, is required.

// below: answered compounds
IN: Write down the reported Ki of `N[C@H](C(=O)O)[C@@H]1C[C@H]1S(=O)(=O)O` , test system: Metabotropic glutamate receptor 1 (Homo sapiens, UniProt Q13255).
OUT: 77

IN: GET /values?readout=Ki&system=Metabotropic glutamate receptor 1 (Homo sapiens, UniProt Q13255)&item= `N[C@@H](CCS(=O)(=O)O)C(=O)O`
OUT: 87

IN: Could you share what Ki was measured for `N[C@@H](C(=O)O)[C@@H]1C[C@H]1S(=O)(=O)O` , tested on Metabotropic glutamate receptor 1 (Homo sapiens, UniProt Q13255)?
OUT: 254

Could you now look at the following compound, please?
IN: Any idea what Ki came out for `N[C@H](C(=O)O)[C@H]1C[C@@H]1S(=O)(=O)O` on Metabotropic glutamate receptor 1 (Homo sapiens, UniProt Q13255)?
OUT: 34

###

Below, each entry is listed alongside its reported Ki.
target: UniProtKB Q14416

As a guide, the following entries are already answered.
IN: Tell me reported Ki for `N[C@H](C(=O)O)[C@H]1C[C@H]1S(=O)(=O)O` , tested with UniProtKB Q14416.
OUT: > 300 µM

IN: What is its Ki for UniProtKB Q14416? Entry: `N[C@@H](CCS(=O)(=O)O)C(=O)O`
OUT: > 300 µM

IN: Lab request: please report Ki under test system UniProtKB Q14416 for `N[C@@H](C(=O)O)[C@H]1C[C@@H]1S(=O)(=O)O`
OUT: > 300 µM

IN: # get_value(readout= Ki, system= UniProtKB Q14416) for `N[C@H](C(=O)O)[C@@H]1C[C@H]1S(=O)(=O)O`
OUT: > 300 µM

IN: What is its Ki for UniProtKB Q14416? Entry: `N[C@H](C(=O)O)[C@H]1C[C@@H]1S(=O)(=O)O`
OUT: 235 µM

Turning now to a further compound:
IN: Give Ki (UniProtKB Q14416) of the following compound: `N[C@@H](C(=O)O)[C@@H]1C[C@H]1S(=O)(=O)O`
OUT: > 300 µM
